ASSAYED SYSTEM: T1, CXCL11 (Homo sapiens, UniProt O14625)
T1 chain: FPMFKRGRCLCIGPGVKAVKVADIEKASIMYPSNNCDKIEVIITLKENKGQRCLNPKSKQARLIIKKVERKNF
ASSAY COMMENT: ELISA
PARAMETER MEASURED: Kd (nM)
The reply should contain only the number, in nM.

Indicate its recorded Kd; the binder in question is Fg β15-66 15-66 (protein) MKHLLLLLLCVFLVKSQGVNDNEEGFFSARGHRPLDKKREEAPSLRPAPPPI
67
